Recorded TGI by entry
Tested on: 786-0 renal
Assay: NCI tumour cell line growth inhibition, 48 h

Past entries and their recorded results:
Compound String	Property Measured	Result
c1ccc(Cc2nc(Cc3n[nH]c(Cc4ccccc4)n3)n[nH]2)cc1	TGI	> 100 µM
COc1ccc(/C=C\c2cc(OC)c(OC)c(OC)c2)cc1OC(=O)c1cccc(Cn2cc(CCOC(=O)[C@H](N)Cc3cn(C)c4ccccc34)nn2)c1	TGI	> 100 µM
c1ccc2[nH]c(-c3ccc(NN=Nc4ccncc4)cc3)nc2c1	TGI	> 100 µM

Incoming: Request the reported TGI associated with Cc1ccccc1N=Nc1ccc(NC(=O)c2ccnn2C)c(C)c1
Outgoing: > 100 µM

Incoming: Which TGI reading was recorded for the molecule CC(C)(C)c1cc(C(C)(C)C)c(SS(=O)(=O)O)c(O)c1O ?
Outgoing: > 100 µM

Incoming: Recorded TGI for Nc1c(Br)cc(Br)c2c1[nH]c(=O)c1ccccc12 , please?
Outgoing: 7.83 µM

Incoming: Looking for the measured TGI of Nc1c2c(=O)[nH]c(=O)c2c(N)c2c(=O)c3ccccc3c(=O)c12 , can you help?
Outgoing: 10.9 µM

Reference source for all entries: PubChem BioAssay (NCI)
